Across several publications, the following IC50 results were reported for Endothelin receptor type B (Sus scrofa).
Quick reminder: number only, in µM, skip the unit.

Solved cases below.
compound: CCCN(C)C(=O)CN1C[C@H](c2cccc3ccccc23)[C@@H](C(=O)O)[C@@H]1c1ccc(OC)cc1
IC50 [µM]: 32
--
compound: Cc1oc([C@@H](Cc2cn(C)c3ccccc23)NC(=O)[C@H](CC(C)C)NC(=O)Nc2ccccn2)nc1C(=O)O
IC50 [µM]: 66
--
compound: CCCc1ccc(=O)n(C(C(=O)NS(=O)(=O)c2ccc(C(C)C)cc2)c2ccc3c(c2)OCO3)n1 (stereo unspecified)
IC50 [µM]: 8.4

Query string: Provide IC50, system Endothelin receptor type B (Sus scrofa), entry COc1ccc(CN(C(=O)/C=C/c2ccc3c(c2)OCO3)C(Cc2ccc(O)cc2)C(=O)O)cc1 (stereo unspecified)
Result string: 12.6

Query string: Provide IC50, system Endothelin receptor type B (Sus scrofa), entry Cc1oc([C@@H](Cc2cn(C)c3ccccc23)NC(=O)[C@H](CC(C)C)NC(=O)Nc2ccccc2)nc1C(=O)O
Result string: 30

====

- system.name: Endothelin receptor type B (Sus scrofa, UniProt P35463)
- Sequence (P35463 whole entry): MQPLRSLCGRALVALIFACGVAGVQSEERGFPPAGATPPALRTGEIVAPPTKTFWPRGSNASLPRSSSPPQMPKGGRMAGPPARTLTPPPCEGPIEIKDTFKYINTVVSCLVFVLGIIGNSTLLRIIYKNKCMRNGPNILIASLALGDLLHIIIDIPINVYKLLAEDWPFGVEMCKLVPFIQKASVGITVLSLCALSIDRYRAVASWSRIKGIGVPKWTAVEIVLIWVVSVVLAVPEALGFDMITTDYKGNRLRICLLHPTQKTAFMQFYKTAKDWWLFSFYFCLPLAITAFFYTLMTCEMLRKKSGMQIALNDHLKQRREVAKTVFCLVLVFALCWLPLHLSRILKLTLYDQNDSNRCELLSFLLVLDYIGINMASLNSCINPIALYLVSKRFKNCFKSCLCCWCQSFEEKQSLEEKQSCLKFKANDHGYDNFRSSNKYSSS
Across several publications, the following pIC50 results were reported for Endothelin receptor type B (Sus scrofa, UniProt P35463).
The quantity pIC50 is defined as the negative base-10 logarithm of the molar concentration.

Solved cases below.
compound: CCCN(CCN1C[C@H](c2ccc3c(c2)OCO3)[C@@H](C(=O)O)[C@@H]1c1ccc(OC)c(F)c1)S(=O)(=O)CCC(C)C
measured: 8.92
--
compound: CC(C)C[C@@H]1NC(=O)[C@@H](C(C)C)NC(=O)[C@@H]2CCCN2C(=O)[C@@H](CS(=O)(=O)O)NC(=O)[C@@H](Cc2c[nH]c3ccccc23)NC1=O (single isomer, unassigned)
measured: 4.52
--
compound: CCCc1cc(C)c(=O)n(C(C(=O)NS(=O)(=O)c2ccc(C(C)C)cc2)c2ccc3c(c2)OCO3)n1 (stereo unspecified)
measured: 5.35
--
compound: Cc1cc(C)c(=O)n(C(C(=O)NS(=O)(=O)c2ccc(C(C)(C)C)cc2)c2ccc3c(c2)OCO3)n1 (stereo in doubt; 2q)
measured: 5.92
--
compound: COc1ccc(CN(Cc2cc3c(cc2Cl)OCO3)C(Cc2ccc(O)cc2)C(=O)O)cc1 (stereo unspecified)
measured: 5.26
--
compound: CCCS(=O)(=O)N(CCN1C[C@H](c2ccc3c(c2)OCO3)[C@@H](C(=O)O)[C@@H]1c1ccc(OC)cc1)CC(C)C
measured: 7.21

Query string: Identify measured pIC50 corresponding to CCCN(CCN1C[C@H](c2ccc3c(c2)OCO3)[C@@H](C(=O)O)[C@@H]1c1ccc(OC)cc1)S(=O)(=O)CC(C)C
Result string: 8.28

Query string: Identify measured pIC50 corresponding to Cc1oc([C@@H](Cc2cn(C)c3ccccc23)NC(=O)[C@H](CC(C)C)NC(=O)N2CCc3ccccc32)nc1C(=O)O
Result string: 4.47

Query string: Identify measured pIC50 corresponding to Cc1[nH]c([C@@H](Cc2cn(C)c3ccccc23)NC(=O)[C@H](CC(C)C)NC(=O)NC2CCC(C)CC2)nc1C(=O)O (stereo partly specified)
Result string: 4.10

Query string: Identify measured pIC50 corresponding to COc1cc(C/C(C(=O)c2ccc(OC(C)C)c(F)c2)=C(/C(=O)O)c2ccc3nsnc3c2)cc(OC)c1OC
Result string: 6.54

Query string: Identify measured pIC50 corresponding to Cc1[nH]c([C@@H](Cc2cn(C)c3ccccc23)NC(=O)[C@H](CC(C)C)NC(=O)NC2CCCCCC2)nc1C(=O)O
Result string: 4.38

Query string: Identify measured pIC50 corresponding to CCCN(C)C(=O)CN1C[C@H](c2ccc3c(c2)OCCO3)[C@@H](C(=O)O)[C@@H]1c1ccc(OC)cc1
Result string: 4.46

Query string: Identify measured pIC50 corresponding to CCCN(CCN1C[C@H](c2ccc3c(c2)OCO3)[C@@H](C(=O)O)[C@@H]1c1ccc(OC)cc1)S(=O)(=O)CCCCl
Result string: 8.20

Query string: Identify measured pIC50 corresponding to Cc1[nH]c([C@@H](Cc2cn(C)c3ccccc23)NC(=O)[C@H](CC(C)C)NC(=O)NC2CC3CCC2C3)nc1C(=O)O (stereo in doubt; 14o)
Result string: 5.08

Query string: Identify measured pIC50 corresponding to CCCCCCS(=O)(=O)N(CCC)CCN1C[C@H](c2ccc3c(c2)OCO3)[C@@H](C(=O)O)[C@@H]1c1ccc(OC)cc1
Result string: 8.35

Query string: Identify measured pIC50 corresponding to Cc1oc([C@@H](Cc2cn(C)c3ccccc23)NC(=O)[C@H](CC(C)C)NC(=O)n2ccc3ccccc32)nc1C(=O)O
Result string: 4.92
